tested on: c-Src; assay: phosphorylation enrichment, bacterial display (enrichment ratio); higher = better substrate or ligand; peptides without Tyr show the background;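 also: 11-residue human phosphosite peptides and single-mutation variants displayed on the E. coli surface, counted by deep sequencing, each peptide's frequency after selection divided by its frequency in the unselected input library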;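 also: frequency after pTyr selection over input frequency; kinase dosed for 20-30% of maximal phosphorylation in three min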
Exercise: state measured phosphorylation enrichment for each of the sequences provided.
// no unit, no text: just the number

[Q] Request the reported phosphorylation enrichment associated with CTTIHYNFMCH [TP53_Y234_N239H_YF]
[A] 0.471

[Q] Fill in: phosphorylation enrichment of ASRKFYAMKIL [AKT3_Y174_G171R_YF] is ___
[A] 0.464

[Q] # input sequence: QNWELYSEGLG [CNKSR1_Y665_R662W] ; wanted: its phosphorylation enrichment
[A] 2.08

[Q] Need phosphorylation enrichment, item RVFIKYLPEWT [PSEN1_Y240_L235R]
[A] 0.855

[Q] Looking for the measured phosphorylation enrichment of CHRQLYHKCTH [F12_Y58_Y53C] , can you help?
[A] 0.457

[Q] # get_value(readout='phosphorylation enrichment', item= KHASTYREAAT [DEAF1_Y483] )
[A] 0.307

[Q] So what does the record say about phosphorylation enrichment for FLAATYPTLGQ [NF1_Y2508_V2511L_YF] ?
[A] 0.404

[Q] Please look up its phosphorylation enrichment: YETDYYRKGGK [INSR_Y1190]
[A] 0.338

[Q] Fill in the blank: the reported phosphorylation enrichment of YQGGTYSKACT [FGG_Y380_S384C] is ____.
[A] 0.436

[Q] Need phosphorylation enrichment, item AEYGLYAAMVR [VSX2_Y222_G223A]
[A] 4.7

[Q] // returns reported phosphorylation enrichment for input DDERGYRRVRS [GIGYF2_Y268]
[A] 0.461

[Q] I would be grateful if you could share the reported phosphorylation enrichment for RIVTTYIRERE [DNM2_Y463] .
[A] 0.499

[Q] Value lookup for phosphorylation enrichment; key = FRQLPYCPSVE [CTNND2_Y508_Q507P_YF]
[A] 0.499

[Q] // query phosphorylation enrichment value for entry GYQPEYGQPAG [SYP_Y278_D277E]
[A] 0.443

[Q] # input sequence: ERTIEYLEEVV [HADHA_Y239_A244V] ; wanted: its phosphorylation enrichment
[A] 0.487

[Q] Form field: reported phosphorylation enrichment of GDRPVYSEDEQ [CHST6_Y362_Y358D]
[A] 0.673

[Q] Consider the sequence ALKKPYGVLYK [RPF2_Y59] and give its measured phosphorylation enrichment.
[A] 0.707

[Q] Recorded phosphorylation enrichment for RGVAHYILQTF [SLC39A4_Y359_T357A] , please?
[A] 0.743

[Q] Query (sequence): VRHRRYKHTHE [CTCF_Y343] ; field requested: phosphorylation enrichment
[A] 0.788

[Q] What value of phosphorylation enrichment has been reported for the following sequence? SAEKAYHEQFS [TUBA1A_Y282_L286F]
[A] 0.441

[Q] Item NPEACYQRLKK [TK2_Y190_T188A] has what recorded phosphorylation enrichment?
[A] 0.685

[Q] Sample KGSEGYLAATF [NF1_Y2503_YF] — what was its phosphorylation enrichment?
[A] 0.564

[Q] Which phosphorylation enrichment is listed for ETKKQYNSFTY [TMED3_Y85_D86N] ?
[A] 0.491

[Q] Which value of phosphorylation enrichment has been reported for EPYEVYRIVPE [IRF8_Y110_K108E] in the records?
[A] 6.54

The values you see were collected from the supplement of paper PMC10065799.
